target: binding partner of C5A (XPA23); assay: Biacore
Could you please report measured fold difference in affinity vs original for the items listed next?
Answers are plain numbers, in fold.

The examples below pair each entry with its known result.
binder	unit_abbrev	fold difference in affinity vs original
C5A (XPA23) VH S52T (antibody, V domains shown) VH: EVQLLESGGGLVQPGGSLRLSCAASGFTFSKYFMFWVRQAPGKGLEWVSVITPSGGMTRYADSVKGRFTISRDNSKNTLYLQMNSLRAEDTAVYYCARVGYGGNSDYWGQGTLVTVSS VL: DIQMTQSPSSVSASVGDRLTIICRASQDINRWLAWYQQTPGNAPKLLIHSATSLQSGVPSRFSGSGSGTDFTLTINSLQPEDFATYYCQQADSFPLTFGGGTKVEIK	fold	0.04
C5A (XPA23) VH R59P (antibody, V domains shown) VH: EVQLLESGGGLVQPGGSLRLSCAASGFTFSKYFMFWVRQAPGKGLEWVSVISPSGGMTPYADSVKGRFTISRDNSKNTLYLQMNSLRAEDTAVYYCARVGYGGNSDYWGQGTLVTVSS VL: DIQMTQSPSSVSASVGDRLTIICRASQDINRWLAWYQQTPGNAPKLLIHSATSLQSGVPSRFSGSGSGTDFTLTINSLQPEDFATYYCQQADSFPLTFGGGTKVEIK	fold	0.07

Task: Return value of fold difference in affinity vs original for input C5A (XPA23) VH S105V (antibody, V domains shown) VH: EVQLLESGGGLVQPGGSLRLSCAASGFTFSKYFMFWVRQAPGKGLEWVSVISPSGGMTRYADSVKGRFTISRDNSKNTLYLQMNSLRAEDTAVYYCARVGYGGNVDYWGQGTLVTVSS VL: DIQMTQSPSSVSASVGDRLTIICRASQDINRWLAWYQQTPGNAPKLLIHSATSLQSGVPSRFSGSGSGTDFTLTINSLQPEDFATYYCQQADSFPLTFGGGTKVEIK , no commentary.
Output: 0.08
